# systemName: SARS-CoV-2 spike protein S1 subunit (Severe acute respiratory syndrome coronavirus 2, UniProt P0DTC2)
# Construct: Recombinant SARS-CoV-2 spike protein S1 subunit (˜72 kDa) containing an N-terminal His-tag; purchased RayBiotech (Peachtree Corners, GA)
# Assay type: binding
Listing of entries alongside the reported Fold peak area enrichment.

Known Fold peak area enrichment results, listed for orientation:
- CCCCCc1cc(O)c(C/C=C(\C)CCC=C(C)C)c(O)c1C(=O)O: 20.5 ± 0.51
- CCCCCc1cc2c(c(O)c1C(=O)O)[C@@H]1C=C(C)CC[C@H]1C(C)(C)O2 [THCA-A, Tetrahydrocannabinolic acid]: 16.7 ± 2.2
- CCCCCc1cc(O)c2c(c1)OC(C)(C)[C@@H]1CCC(C)=C[C@@H]21 [Δ^9-THC, Δ^9-Tetrahydrocannabinol]: 3.0 ± 0.77
- C=C(C)[C@@H]1CCC(C)=C[C@H]1c1c(O)cc(CCCCC)c(C(=O)O)c1O: 12.2 ± 0.52
- CCCCCc1cc(O)c(C/C=C(\C)CCC=C(C)C)c(O)c1: 3.4 ± 0.82

### Prompt Supply recorded Fold peak area enrichment for CCCCCc1cc2c(c(O)c1C(=O)O)-c1cc(C)ccc1C(C)(C)O2 here.
### Response 5.6 ± 1.4

### Prompt Supply recorded Fold peak area enrichment for CCCCCc1cc(O)c2c(c1)OC(C)(CCC=C(C)C)C=C2 (centres unmarked) here.
### Response 2.9 ± 0.75

### Prompt Supply recorded Fold peak area enrichment for C=C(C)[C@@H]1CCC(C)=C[C@H]1c1c(O)cc(CCCCC)cc1O here.
### Response 2.9 ± 0.72

### Prompt Supply recorded Fold peak area enrichment for CCCCCc1cc(O)c2c(c1)OC(C)(C)[C@@H]1CC=C(C)C[C@@H]21 [Δ^8-THC, Δ^8-Tetrahydrocannabinol] here.
### Response 3.1 ± 0.81

### Prompt Supply recorded Fold peak area enrichment for C=C(C)[C@@H]1CCC(C)=C[C@H]1c1c(O)cc(CCC)cc1O here.
### Response 1.6 ± 0.17

### Prompt Supply recorded Fold peak area enrichment for CCCCCc1cc(O)c2c(c1)OC(C)(C)c1ccc(C)cc1-2 here.
### Response 3.4 ± 0.78
